Below, each entry is listed alongside its reported SPOT peptide array binding signal intensity.
# Tgt: ScLsb2
# Assay notes: SPOT peptide array binding signal intensity (averaged, normalized) (arbitrary units (background-subtracted, floor 0; scale differs between SH3 domains)); higher = stronger binding of the SH3 domain to the peptide
Reply with the value as a number alone.

Look up SPOT peptide array binding signal intensity: PSRRDSLSIPRAVDA
3.5

Look up SPOT peptide array binding signal intensity: QLMKNLPKIPLLNDI
2

Look up SPOT peptide array binding signal intensity: PPIPNAPLSPAPAVP
4.5

Entry source: the supplement of paper PMC4466140
